system: human PCSK9 locus; test: Secreted PCSK9 by ELISA in Huh7 cells transfected with mRNA and gRNA; format: cell-based; conditions: Huh7 cells, LTRP5-ADD-ZIM3 mRNA + gRNA scaffold 316, 25 ng mRNA:12.5 ng gRNA, 6 days post-transfection, normalized to total cell count
Decision: Secreted PCSK9 beneath 50 ng/mL gives criterion met; Secreted PCSK9 meeting or exceeding 50 ng/mL gives criterion not met.

Here are 3 substances together with their reported answers.
substance="TG-06-141 (guide ACUGGCCUUAACCUGGCAGC; listed as RNA, chemistry not given here)" answerlabel="criterion met"
substance="TG-06-169 (guide CGGGGUUGGGAGACCCGGAG; listed as RNA, chemistry not given here)" answerlabel="criterion not met"
substance="TG-06-128 (guide AGAAAUCAACUGGACAAGCA; listed as RNA, chemistry not given here)" answerlabel="criterion not met"

stdin: Does the reported Secreted PCSK9 of the following substance sit strictly below 50 ng/mL? TG-06-151 (guide CUCUGCGCGUAAUCUGACGC; listed as RNA, chemistry not given here)
stdout: criterion not met

stdin: Does the reported Secreted PCSK9 of the following substance sit strictly below 50 ng/mL? TG-06-004 (guide GCCAGGCCGUCCUCCUCGGA; listed as RNA, chemistry not given here)
stdout: criterion not met

stdin: Does the reported Secreted PCSK9 of the following substance sit strictly below 50 ng/mL? TG-06-154 (guide AGGGUGUGGGUGCUUGACGC; listed as RNA, chemistry not given here)
stdout: criterion met

====

The entries below are paired with their reported Secreted PCSK9.
tested on: human PCSK9 locus; test: Secreted PCSK9 by ELISA in Huh7 cells transfected with mRNA and gRNA; format: cell-based; conditions: Huh7 cells, LTRP5-ADD-ZIM3 mRNA + gRNA scaffold 316, 50 ng mRNA:25 ng gRNA, 6 days post-transfection, normalized to total cell count
# output: bare number, implied unit ng/mL

Worked set:
substance="TG-06-122 (guide CCUUUGUUUCUUCCCAGUAU; listed as RNA, chemistry not given here)" recordedresult=79.36
substance="TG-06-168 (guide GUGGGAAGGUUCGCGGGGUU; listed as RNA, chemistry not given here)" recordedresult=19.1
substance="TG-06-132 (guide AGAAGAUUCAAUUUGCAAAG; listed as RNA, chemistry not given here)" recordedresult=56.68

Next item in the queue.
Reported Secreted PCSK9 for TG-06-119 (guide GAGCAGGCCAUUUCACUCGG; listed as RNA, chemistry not given here) was 70.37

====

tested on: human PCSK9 locus; test: Secreted PCSK9 by ELISA in Huh7 cells transfected with mRNA and gRNA; format: cell-based; conditions: Huh7 cells, LTRP5-ADD-ZIM3 mRNA + gRNA scaffold 316, 50 ng mRNA:25 ng gRNA, 6 days post-transfection, normalized to total cell count
recordedEndpoint: Secreted PCSK9 (ng/mL)
# output: bare number, implied unit ng/mL

Worked set:
substance="TG-06-147 (guide GUGUUUCCUGGGUCCACCUU; listed as RNA, chemistry not given here)" targetorsystem="human PCSK9 locus" recordedresult=53.6
substance="TG-06-135 (guide GGAAAGCUGAGCUUGUGCCU; listed as RNA, chemistry not given here)" targetorsystem="human PCSK9 locus" recordedresult=25.66

Reported Secreted PCSK9 for TG-06-005 (guide GUGCUCGGGUGCUUCGGCCA; listed as RNA, chemistry not given here) was 67.08
